Molecular target: T1, biotinylated CRH (human and mouse, not fully specified; biotinylated, position not stated)
T1 construct: also called Biotin-CRH; biotin-labeled CRH
T1 peptide: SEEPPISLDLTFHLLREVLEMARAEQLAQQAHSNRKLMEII
Assay: competitive ELISA, coated 1st mAb; competitor PR006148
measured-quantity: % Inhibition (%)
Answer in %, number only, no unit symbol.

State its % Inhibition: PR302050 (antibody, human IgG1, kappa, V domains shown, Humanized variant of PR301777) VH: EMQLVESGGGLVQPGGSLKLSCAASGFTFSNYWMNWVRQASGKGLEWVAEIRLKSNNYATHYAESVKGRFTISRDDSKSTVYLQMNSLKTEDTAVYYCTVGTLVYWGQGTLVTVSS VL: DIVLTQSPDSLAVSLGERATINCRASQSVSTSTYNYMHWFQQKPGQPPKLLIKFASNLESGVPDRFSGSGSGTDFTLTISSLQAEDTAVYYCQHSWEIPYTFGQGTKLEIKR
95
